System: NCI-H1395
Assay: relative viability (nuclei count vs DMSO), 5 days (fraction); higher = more cells survive
Conditions: first compound 2 µM
property: relative viability

[[record]]
molecule = "Cc1csc(=NC2CCCCC2)n1/N=C/c1ccc(O)c(O)c1O [MIM1] + Cc1nc(Nc2ncc(C(=O)Nc3c(C)cccc3Cl)s2)cc(N2CCN(CCO)CC2)n1 [Dasatinib] (partner 0.075 µM)"
property = "relative viability"
result_number = 0.381

[[record]]
molecule = "CN1CCN(CCOc2cc(OC3CCOCC3)c3c(Nc4c(Cl)ccc5c4OCO5)ncnc3c2)CC1 [Saracatinib] + Cc1nc(NC(=O)N2CCC[C@H]2C(N)=O)sc1-c1ccnc(C(C)(C)C(F)(F)F)c1 [Alpelisib] (partner 2 µM)"
property = "relative viability"
result_number = 0.851

[[record]]
molecule = "Cc1csc(=NC2CCCCC2)n1/N=C/c1ccc(O)c(O)c1O [MIM1] + Nc1nc2[nH]cc(CCc3ccc(C(=O)N[C@@H](CCC(=O)O)C(=O)O)cc3)c2c(=O)[nH]1 [Pemetrexed] (partner 0.2 µM)"
property = "relative viability"
result_number = 0.8

[[record]]
molecule = "Cc1csc(=NC2CCCCC2)n1/N=C/c1ccc(O)c(O)c1O [MIM1] + Cc1cc(Nc2cc(N3CCN(C)CC3)nc(Sc3ccc(NC(=O)C4CC4)cc3)n2)n[nH]1 [Tozasertib] (partner 0.1 µM)"
property = "relative viability"
result_number = 0.784

